Tested on: Hepatotoxicity
Test: FDA HLAED, alkaline phosphatase increase
Details: human
value-type: Alkaline Phosphatase Increase - Number of Reports

Known results for compounds:
| compound | result |
| --- | --- |
| CC(=O)OCC1=C(C(=O)O)N2C(=O)[C@@H](NC(=O)CSc3ccncc3)[C@H]2SC1 [CEPHAPIRIN] | < 4 |
| COC(=O)C1=C(C)NC(C)=C(C(=O)OC(C)C)C1c1cccc2nonc12 (stereo not drawn) [ISRADIPINE] | < 4 |
| CCC(=O)OCC(=O)[C@@]1(OC(=O)CC)[C@H](C)C[C@H]2[C@H]3[C@H]([C@@H](O)C[C@@]21C)[C@@]1(C)C=CC(=O)C=C1C[C@H]3Cl [ALCLOMETASONE DIPROPIONATE] | < 4 |
| CCN1CCN(C(=O)N[C@@H](C(=O)N[C@@H]2C(=O)N3[C@@H]2SC(C)(C)[C@@H]3C(=O)O)c2ccccc2)C(=O)C1=O [PIPERACILLIN] | < 4 |
| CC1(C)S[C@@H]2[C@H](NC(=O)[C@H](NC(=O)N3CCN(S(C)(=O)=O)C3=O)c3ccccc3)C(=O)N2[C@H]1C(=O)O [MEZLOCILLIN] | < 4 |

QUERY: Quick one: Alkaline Phosphatase Increase - Number of Reports of O=C(O)COCCN1CCN(C(c2ccccc2)c2ccc(Cl)cc2)CC1 (stereo not drawn) [CETIRIZINE] ?
RESULT: < 4

QUERY: Input Nc1nc(O)c2ncn(COC(CO)CO)c2n1 [GANCICLOVIR]
RESULT: >= 4

====

Test system: Hepatotoxicity
Test: FDA HLAED, serum glutamic pyruvic transaminase (SGPT) increase
Conditions: human
value-type: SGPT Increase - Number of Reports

Worked cases, SGPT Increase - Number of Reports given:
| molecule | value-type | result |
| --- | --- | --- |
| C[C@@H]1CN(c2c(F)c(N)c3c(=O)c(C(=O)O)cn(C4CC4)c3c2F)C[C@H](C)N1 | SGPT Increase - Number of Reports | < 4 |
| CO[C@@]1(NC(=O)Cc2cccs2)C(=O)N2C(C(=O)O)=C(COC(N)=O)CS[C@@H]21 | SGPT Increase - Number of Reports | < 4 |
| CCn1cc(C(=O)O)c(=O)c2cc(F)c(N3CCNCC3)nc21 | SGPT Increase - Number of Reports | < 4 |
| Cc1cccc(Nc2ccccc2C(=O)O)c1C | SGPT Increase - Number of Reports | < 4 |
| C#C[C@]1(O)CC[C@H]2[C@@H]3CCC4=CC(=O)CC[C@@H]4[C@H]3CC[C@@]21CC | SGPT Increase - Number of Reports | >= 4 |
| CC[C@H](C)C(=O)O[C@H]1C[C@H](O)C=C2C=C[C@H](C)[C@H](CC[C@@H](O)C[C@@H](O)CC(=O)O)[C@H]21 | SGPT Increase - Number of Reports | >= 4 |

QUERY: I'm curious: which SGPT Increase - Number of Reports was measured for Clc1ccc(COC(Cn2ccnc2)c2ccc(Cl)cc2Cl)cc1 (stereo not drawn) tested on Hepatotoxicity?
RESULT: < 4

QUERY: Next entry: C[C@H]1COc2c(N3CCN(C)CC3)c(F)cc3c(=O)c(C(=O)O)cn1c23.C[C@H]1COc2c(N3CCN(C)CC3)c(F)cc3c(=O)c(C(=O)O)cn1c23.O
RESULT: < 4

====

Tested on: Hepatotoxicity
Assay: FDA HLAED, serum glutamic oxaloacetic transaminase (SGOT) increase
Conditions: human
value-type: SGOT Increase - Number of Reports

| compound | SGOT Increase - Number of Reports |
| --- | --- |
| CCN[C@@H](C)Cc1cccc(C(F)(F)F)c1 [DEXFENFLURAMINE] | >= 4 |
| NNC(=O)c1ccncc1 [ISONIAZID] | >= 4 |
| C=CCN1C[C@H](C(=O)N(CCCN(C)C)C(=O)NCC)C[C@@H]2c3cccc4[nH]cc(c34)C[C@H]21 [CABERGOLINE] | < 4 |
| CC(C)[C@H](N)C(=O)OCCOCn1cnc2c(=O)[nH]c(N)nc21 [VALACYCLOVIR] | < 4 |
| COc1cc([C@@H]2c3cc4c(cc3[C@@H](O[C@@H]3O[C@@H]5CO[C@@H](c6cccs6)O[C@H]5[C@H](O)[C@H]3O)[C@H]3COC(=O)[C@H]23)OCO4)cc(OC)c1O [TENIPOSIDE] | < 4 |
| COc1c(C)c2c(c(O)c1C/C=C(\C)CCC(=O)O)C(=O)OC2 [MYCOPHENOLIC ACID] | < 4 |
| COC1=CC(=O)C[C@@H](C)[C@]12Oc1c(Cl)c(OC)cc(OC)c1C2=O [GRISEOFULVIN] | >= 4 |
| NCC1(CC(=O)O)CCCCC1 [GABAPENTIN] | >= 4 |
| CN(Cc1cnc2nc(N)nc(N)c2n1)c1ccc(C(=O)N[C@@H](CCC(=O)O)C(=O)O)cc1 [METHOTREXATE] | >= 4 |
| Cn1cnc([N+](=O)[O-])c1Sc1ncnc2nc[nH]c12 [AZATHIOPRINE] | >= 4 |

QUERY: // returns reported SGOT Increase - Number of Reports for input CCCN1C[C@H](CSC)C[C@@H]2c3cccc4[nH]cc(c34)C[C@H]21 [PERGOLIDE]
RESULT: < 4

QUERY: What do we get for N=C(N)c1ccc(OCCCCCOc2ccc(C(=N)N)cc2)cc1 [PENTAMIDINE] ?
RESULT: < 4

QUERY: What do you have for CCCCCCCN(CC)CCCC(O)c1ccc(NS(C)(=O)=O)cc1 (configuration not stated) [IBUTILIDE] ?
RESULT: < 4

====

Tested on: Hepatotoxicity
Assay: FDA HLAED, serum glutamic oxaloacetic transaminase (SGOT) increase
Settings: human
value-type: SGOT Increase - Number of Reports

| compound | SGOT Increase - Number of Reports |
| --- | --- |
| CO/N=C(/C(=O)N[C@@H]1C(=O)N2C(C(=O)OC(C)OC(=O)C(C)(C)OC)=C(COC(N)=O)CS[C@H]12)c1ccco1 (stereo not given in full) | < 4 |
| C[C@H](O)C(=O)Nc1c(I)c(C(=O)NC(CO)CO)c(I)c(C(=O)NC(CO)CO)c1I | < 4 |
| CCOC(=O)CCC(=O)O[C@H]1[C@H](O[C@@H]2[C@@H](C)[C@H](O[C@H]3C[C@@](C)(OC)[C@@H](O)[C@H](C)O3)[C@@H](C)C(=O)O[C@H](CC)[C@@](C)(O)[C@H](O)[C@@H](C)C(=O)[C@H](C)C[C@@]2(C)O)O[C@H](C)C[C@@H]1N(C)C [ERYTHROMYCIN ETHYLSUCCINATE] | >= 4 |
| CC1(C)NC(=O)N(c2ccc([N+](=O)[O-])c(C(F)(F)F)c2)C1=O [NILUTAMIDE] | < 4 |
| CN(Cc1ccc(C(C)(C)C)cc1)Cc1cccc2ccccc12 | < 4 |

QUERY: Using the record for CCC(=O)[C@@]1(C)[C@H](C)C[C@H]2[C@@H]3CCC4=CC(=O)C=C[C@]4(C)[C@H]3[C@@H](O)C[C@@]21C [RIMEXOLONE] , report its SGOT Increase - Number of Reports.
RESULT: < 4

QUERY: // same read-out, input: CCOC(=O)c1ccc(C#Cc2ccc3c(c2)C(C)(C)CCS3)nc1
RESULT: < 4

QUERY: And then CCOC(=O)/C=C(C)/C=C/C=C(C)/C=C/c1c(C)cc(OC)c(C)c1C [ETRETINATE] , what is it?
RESULT: >= 4

QUERY: Same for C[C@]12CC[C@H]3[C@@H](CCC4=CC(=O)CC[C@@]43C)[C@@H]1CC[C@@H]2OC(=O)Cc1ccccc1 [TESTOSTERONE PHENYLACETATE]
RESULT: < 4

QUERY: Also need CCCCCCC(C)(C)c1cc(O)c2c(c1)OC(C)(C)C1CCC(=O)CC21 (stereo not given) , thanks.
RESULT: < 4

====

System: Hepatotoxicity
Assay: FDA HLAED, liver enzyme composite activity
Settings: human, Liver
value-type: Composite Activity - Active
Reply with just the number.

QUERY: Given the entry CCCc1cc(=O)[nH]c(=S)[nH]1 [PROPYLTHIOURACIL] , report its measured Composite Activity - Active.
RESULT: 0

QUERY: Moving on to Nc1ccn([C@@H]2O[C@H](CO)[C@@H](O)[C@@H]2O)c(=O)n1 [CYTARABINE]
RESULT: 3

QUERY: Lookup CC(C)NCC(O)COc1ccc(CC(N)=O)cc1 (stereo not given) [ATENOLOL]
RESULT: 0

QUERY: One more compound: CC(C)c1c(C(=O)Nc2ccccc2)c(-c2ccccc2)c(-c2ccc(F)cc2)n1CC[C@@H](O)C[C@@H](O)CC(=O)O [ATORVASTATIN]
RESULT: 3

QUERY: O=C(O)c1cc(-c2ccc(F)cc2F)ccc1O [DIFLUNISAL] , same question.
RESULT: 0

meta.source: ChEMBL document CHEMBL1697781
